- Test system: parasites (ring stage, in human red blood cell culture)
- testMethodNotes: Parasite LDH growth assay (antiparasite potency, Parasite Assay)
- Format: cell-based, Plasmodium falciparum
- conditionLabel: Plasmodium falciparum, Erythrocyte, 72 h, 0.7% rings, 2% haematocrit, 72 hours at 37° C., LDH readout of parasite growth
Measured pEC50 by item
Lab note — pEC50 values are minus log10 of concentrations in M.

compound: CC[C@]1(C)CC(=O)N([C@@H]2C[C@@H](C)c3ccc(C(=O)N[C@@H]4c5ccccc5OC(C)(C)[C@H]4O)cc32)C(=N)N1
pEC50: 9.15
--
compound: CC1(C)CC(=O)N(C2CC(C)(C)c3ccc(C(=O)N[C@@H]4c5ccccc5C[C@H]4O)cc32)C(=N)N1 (stereo partly shown)
pEC50: 7.06
--
compound: CCC1(CC)C[C@@H](N2C(=N)NC(C)(C)CC2=O)c2cc(C(=O)N[C@@H]3c4ccccc4C[C@H]3O)ccc2O1 [Example 51A]
pEC50: 7.65
--
compound: CC1(C)CC(=O)N(C2CCS(=O)(=O)c3ccc(C(=O)N[C@@H]4c5ccccc5C[C@]4(C)O)cc32)C(=N)N1 (stereo partly shown)
pEC50: 7.18
--
compound: CCC1(CC)CC(=O)N([C@@H]2CC(COC)Oc3ccc(C(=O)N[C@@H]4c5ccccc5OC(C)(C)[C@H]4O)cc32)C(=N)N1 (stereo partly shown) [Example 18A]
pEC50: 9.10

[ask] Field request: pEC50 | item: CCC1(CC)CC(=O)N([C@@H]2CCOc3ccc(C(=O)NC(CC4CCCCC4)c4ccccc4)cc32)C(=N)N1 (stereo partly shown)
[reply] 8.10

[ask] Same for "C[C@@H]1C[C@@H](N2C(=N)NC(C)(C)CC2=O)c2cc(C(=O)N[C@@H]3c4ccccc4OC[C@@]3(C)O)ccc21"
[reply] 8.30
